Consider the following compounds; for each one, report its TGI.
System: A549 NSCLC
Assay: NCI tumour cell line growth inhibition, 48 h

- Cc1cccc(C(=O)O)c1C(=O)c1cccc2ccccc12: > 100 µM
- CC(C)(C)OC(=O)c1ccc(NCC2=C(Br)C(=O)C=CC2=O)cc1: > 100 µM
- NCCSCCC(=O)O: > 100 µM
- [N-]=[N+]=NCC(O)Cn1cnc2c(NC(=O)c3ccccc3)ncnc21 (centres undefined): > 100 µM
- CCOc1cc2c(cc1O)C(O)C[C@@H]1[C@@H]2CC[C@]2(C)[C@@H](O)CC[C@@H]12 (some centres undefined): > 100 µM
- Clc1cc(Cl)ncn1: > 100 µM
- COc1cc(Oc2nc3cc(F)c(F)cc3nc2-c2ccccc2)cc(OC)c1OC: > 100 µM
- O=C(N=Nc1ccccc1Cl)NNc1ccccc1Cl: > 100 µM
- CS(=O)(=O)c1ccc(Nc2nc(N[C@H]3CCCC[C@H]3N)nc3cc[nH]c(=O)c23)cc1: > 100 µM
- Cc1c2ccncc2c(C)c2c1[nH]c1ccc(OCCN(C)C)cc12: 0.844 µM

Respectfully, I request TGI for each entry included below.
1. CCC[CH2][Sn]([CH2]CCC)([S]C#N)[S]C#N
2. CCCCCCCCCCCCC(O)c1ccco1 (centres undefined)
3. COC1=CC(=O)N(C)C(O)C1(C#N)OC1OC(CO)C(O)C(O)C1O (centres undefined)
4. CC1OC(=O)C(O)=C1O (centres undefined)

1. 11.9 µM
2. 48.1 µM
3. > 100 µM
4. > 100 µM

Take each entry in turn and give its TGI.
1. CCOC(=O)C(Cc1ccc(N(CCCl)CCCl)cc1)NC(=O)C(Cc1ccccc1)NC=O (centres undefined)
2. CSc1nc2nc3c(nc2c(=O)n1C)C(=O)c1ccccc1C3=O
3. CC1=CCC[C@H]2[C@](C)(CC3=CC(=O)C(SCC(C)C)=CC3=O)[C@@H](C)CC[C@]12C
4. Nc1nc2c(C(=O)NCc3cccs3)nnn2c2cccc(Cl)c12

1. 0.727 µM
2. 0.184 µM
3. 29.9 µM
4. > 100 µM

TGI lookup needed for Cn1cc(C2=C(c3c[nH]c4ccccc34)C(=O)NC2=O)c2ccccc21 , thanks.
> 25 µM

----------
Test system: SF-539 CNS
Experiment: NCI tumour cell line growth inhibition, 48 h
I'd be grateful if you could share measured TGI for these entries.

# annotated cases, reported TGI shown
• Cc1nc(Nc2ccccc2Cl)sc1C(=O)CC(=O)C(N)=O = > 100 µM
• C/C(CN1C(=O)c2ccccc2C1=O)=N\NS(=O)(=O)c1cccc(C(=O)O)c1 = > 100 µM
• COc1cc(N(CCC#N)CCC#N)ccc1/C=N\NC(=O)c1ccc(C)cc1 = > 100 µM
• COC1CC(O)C(OC(=O)c2ccccc2)C(C)O1 (centres undefined) = > 100 µM
• CCOC(=O)c1cc(-c2ccc(-c3cc(C(=O)OCC)c(C#N)c(N)c3C#N)cc2)c(C#N)c(N)c1C#N = > 100 µM

Please state TGI for every compound in the list that follows.
1. CCCCCC(=O)Nc1nc2nc[nH]c2c(=O)[nH]1
2. CCOC(=O)CCC(C(=O)OCC)n1nnc2cc(Nc3c(C)[n+]([O-])c4cc(F)c(OCC)cc4[n+]3[O-])ccc21 (centres undefined)
3. CCOC(=O)/C(=C/c1cccc(Cl)c1)N(CC)CC
4. [N-]=[N+]=NCCCn1c2c(c3ccc([N+](=O)[O-])cc3c1=O)C(=O)c1cc(Br)ccc1-2
5. O=C(O)/C(Cc1ccnc2ccccc12)=N\O
6. CC(=O)OCC1OC(n2c(C)c(C)c(C)c(C#N)c2=S)C(OC(C)=O)C(OC(C)=O)C1OC(C)=O (centres undefined)
7. C#CC1=CC(=O)C(OC)=CC1=O
8. CC1(C)C=C(/C=N/Nc2ccccc2)C(C#N)=C(O)C1(C#N)C#N

1: > 100 µM; 2: > 100 µM; 3: > 100 µM; 4: > 100 µM; 5: > 100 µM; 6: > 100 µM; 7: > 100 µM; 8: > 100 µM

Batch request: TGI for each of the following compounds.
1. CC(=O)C(C)(C)CCC(C)(C)C(C)=O
2. COC1=CC(=O)N(C)C(O)C1(C#N)OC1OC(CO)C(O)C(O)C1O (centres undefined)
3. COc1cc2nc(-c3cccs3)nc(Nc3cccc(Cl)c3)c2cc1OC

1. > 100 µM
2. > 100 µM
3. > 100 µM

Please supply TGI for each of the following items, keeping them in order.
1. CC(C)(C)C1=C(Br)C(O)(C(C)(C)C)OP1(=O)c1ccccc1 (centres undefined)
2. COc1ccc(-c2nc(-c3nc4ccc(C)cc4[nH]3)cc3c2[nH]c2ccccc23)cc1
3. CCCCN(C)/N=N/c1nc[nH]c1C(N)=O

> 100 µM
> 100 µM
> 100 µM
